Catalogue of melting point readings, one per entry.
recordedMetric: melting point

* O=C(Nc1ccc2[nH]c(=O)[nH]c2c1)C(=O)N1CCC(Cc2ccc(F)cc2)CC1 | > 260 °C
* O=C1CC=C(c2c[nH]c3ccc([N+](=O)[O-])cc23)CC1 | 210 to 212 °C
* COCCN(C)Cc1ncc(C(=O)Nc2nc3c(OC)ccc(N4CCOCC4)c3s2)n1C | 176 to 178 °C
* CC(=O)OCCN(C(=O)Cn1c(=O)n(C)c2nc(-c3ccccc3)ncc21)c1ccccc1 | 158 to 160 °C
* CC1NN(Cc2ccc(Cl)cc2)C(=O)NC1=O (stereo not given) | 155 °C
* CS(=O)C1C=Nc2cc(Cl)ccc2C1=O (stereo not given) | 247 to 249 °C
* CCOC(=O)c1cc(NCc2ccccc2)c(Oc2ccc(OC)cc2)c(S(N)(=O)=O)c1 | 189 to 190 °C
* CC(C)SSCC12CCC(O)CC1=CCC1C3CCC(=O)C3(C)CCC12 (stereo not given) | 168 to 169 °C
* CCN(CC)C(=O)Cn1c(=N)sc2cc(OC(F)(F)F)ccc21 | 223 °C
* CN1CCN(C2Cc3ccc(Cl)cc3Sc3cc(F)ccc32)CC1 (stereo not given) | 156 to 158 °C
* COc1cc(C)c2c(Oc3cccc(C(F)(F)F)c3)c(OC)cc(NC(C)CCC[N+](=O)[O-])c2n1 (stereo not given) | 84.8 to 85.1 °C
* CC(C)[C@H](NS(=O)(=O)c1ccc2c(Cl)cnc(Cl)c2c1)C(=O)OC(C)(C)C | 127 to 129 °C
* COCCOc1ccc(/C=C/C(=O)NS(=O)(=O)C(F)(F)F)c(Oc2ncc(C(F)(F)F)cc2Cl)c1 | 126 to 128 °C
* Nc1ccccc1Nc1ccc(Nc2nccs2)cc1 | 184 to 186 °C
* CC(=O)c1cccc2ccc(CC#N)cc12 | 88 °C
* O=c1[nH]c(=O)n(Cc2cccc(OCc3noc(-c4ccc(C(F)(F)F)cc4)n3)c2)o1 | 90 to 91 °C
* C[C@@H](Cn1ncc2ccc3oc(C(=O)OCc4ccccc4)cc3c21)NC(=O)OCc1ccccc1 | 140 to 141 °C
* CC(=Cc1ccc2ccccc2c1)c1ccc(C(=O)O)cc1 | 238 °C
* COc1cccc(NC(=O)C(C)(C)C)c1C(C)O (stereo not given) | 159 °C
* CCN(CCNS(=O)(=O)c1ccc(C)cc1)C(=O)c1ccccc1C(=O)c1ccc(Cl)cc1 | 145 to 147 °C
* CC(=O)Nc1cccc(/C=C/C(=O)N2CC(CCl)c3ccc([N+](=O)[O-])cc32)c1 (stereo not given) | 229 to 230 °C
* CC(C)OC(=O)c1cc(N=c2sc(=O)n3n2CCCC3)c(F)cc1F | 86 to 88 °C
* COC(=O)c1cc(N)c(C(C)(C)C)c(N)c1 | 71 to 73 °C
* COC(=O)C(C)Oc1ccc(C(C)=O)cc1 (stereo not given) | 54.8 °C
* CCCCc1cccnc1NC=C(C#N)C(=O)OCC | 98.5 to 99.5 °C
* C[Si](C)(C)c1cccs1 | 61 to 62 °C
* COc1cccc2c1nc(C(F)F)n2-c1nc(N2CCOCC2)c2ncn(-c3cccnc3)c2n1 | 229 to 231 °C
* CCOC(=O)c1nc2cc(-c3ccccc3)sc2nc1N | 173 to 175 °C
* O=C(NC1N=C(c2ccccc2F)c2ccccc2NC1=S)c1ccc(Cl)cc1 (stereo not given) | 156 to 158 °C
* COc1c(Nc2ncc3ccc(-c4ccccc4N(C)S(C)(=O)=O)n3n2)cccc1C1CCN(C)CC1 | 92 to 101 °C
* CN1CCC23COC(C)(C)OC2C1Cc1ccc(O)cc13 (stereo not given) | 237 to 238 °C
* COC1(OCc2ccccc2)C=C2C(=CC1)CCN(CCO)C2C1(c2ccccc2Cl)CC1 (stereo not given) | 65 to 70 °C
* Cc1cc(F)ccc1Nc1nc(N(C)c2ccccc2)c2cc(OCCN(C)C)ccc2n1 | 112 to 114 °C
* CC1(C)CC2(CC(C)(C)N1c1nc(Cl)nc(Cl)n1)OCCO2 | 169 to 172 °C
* CS(=O)(=O)c1ccc(-c2cc(C(=O)c3cccnc3)sc2N2CCOCC2)cc1 | 122 °C
